- Test Target: G12D KRAS (aa1-185) (Homo sapiens, UniProt P01116, G12D);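 also: surface plasmon resonance at 10 °C, KRAS captured on a streptavidin chip in GDP-containing buffer, compound dilution series injected, blank streptavidin surface as reference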
- Sequence (P01116 1-185 isoform P01116-2 G12D): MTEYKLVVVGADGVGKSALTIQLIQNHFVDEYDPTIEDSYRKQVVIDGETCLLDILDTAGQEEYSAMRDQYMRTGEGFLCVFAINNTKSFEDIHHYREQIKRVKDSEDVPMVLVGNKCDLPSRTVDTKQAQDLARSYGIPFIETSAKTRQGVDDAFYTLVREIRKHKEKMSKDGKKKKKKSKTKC
- Assay: biochemical
Where a name gives a salt, the structure may show the parent alone.
Below, each entry is listed alongside its reported Kd.
Please give a number only; it is taken to be in nM.

C#Cc1c(F)ccc2cc(O)cc(-c3nc4c5c(nc(OC[C@@]67CCCN6C[C@H](F)C7)nc5c3F)N(CCO)CCO4)c12 :: 0.046
Oc1cc(-c2ncc3c(N4C[C@@H]5C[C@H](C4)[C@H](O)C5)nc(OC[C@@]45CCCN4C[C@H](F)C5)nc3c2F)c2c(Cl)cccc2c1 :: 0.138
Oc1cc(-c2ncc3c(N4C[C@H]5CC[C@@H](C4)O5)nc(OC[C@@]45CCCN4C[C@H](F)C5)nc3c2F)c2c(F)c(F)ccc2c1 [Example 16, acetic acid salt] :: 23.8
C#Cc1cccc2cc(O)cc(-c3ncc4c(N5CCC[C@@H](CC#N)C5)nc(OC[C@@]56CCCN5C[C@H](F)C6)nc4c3F)c12 :: 0.268
CC(=O)N1CCN(c2nc(OC[C@@]34CCCN3C[C@H](F)C4)nc3c(F)c(-c4cc(O)cc5ccc(F)c(F)c45)ncc23)C[C@@H]1CC#N :: 59.8
C#Cc1cccc2cc(O)cc(-c3ncc4c(N5CC[C@@H](CC#N)C5)nc(OC[C@@]56CCCN5C[C@H](F)C6)nc4c3F)c12 :: 2.43
C#Cc1cccc2cc(O)cc(-c3ncc4c(N5CC[C@H](CC#N)C5)nc(OC[C@@]56CCCN5C[C@H](F)C6)nc4c3F)c12 :: 12.3

Entry N#CC[C@@H]1CCCN(c2nc(OC[C@@]34CCCN3C[C@H](F)C4)nc3c(F)c(-c4cc(O)cc5ccc(F)c(F)c45)ncc23)C1 needs its Kd filled in; supply it.
0.045
